- System: A431
- ASSAY INFO: filipin (cholesterol) integrated intensity within LBPA endosomes, Z-score; higher = more cholesterol in LBPA endosomes
- PARTICULARS: compound concentration in added solution (µM; 5 µl added to 20 µl cells): 10; 18 h
Structures can show the parent of a compound that is named as a salt.
Assign class by filipin (z-score): not lower than -0.4 means TRUE; lower than -0.4 means FALSE.

Record excerpt, results attached:
[[record]]
compound = "Cc1c(Cl)cccc1Nc1ccccc1C(=O)O"
experimental_system = "A431"
class_label = "FALSE"

[[record]]
compound = "C[C@H](CCC(=O)O)[C@H]1CC[C@H]2[C@@H]3[C@H](O)C[C@@H]4C[C@H](O)CC[C@]4(C)[C@H]3CC[C@]12C"
experimental_system = "A431"
class_label = "FALSE"

[[record]]
compound = "CC(N)C12CC3CC(CC(C3)C1)C2 (stereo unspecified) [Rimantadine Hydrochloride]"
experimental_system = "A431"
class_label = "FALSE"

[[record]]
compound = "CCN(CC)CCCC(C)Nc1ccnc2cc(Cl)ccc12 (stereo unspecified) [Chloroquine diphosphate]"
experimental_system = "A431"
class_label = "TRUE"


Reported filipin (z-score) reaches at least -0.4 for CN(C)C(=N)NC(=N)N [Metformin hydrochloride] ?
FALSE

Reported filipin (z-score) reaches at least -0.4 for CO[C@@H]1[C@@H](OC(N)=O)[C@@H](O)[C@H](Oc2ccc3c(O)c(NC(=O)c4ccc(O)c(CC=C(C)C)c4)c(=O)oc3c2C)OC1(C)C [Novobiocin sodium salt] ?
FALSE

Reported filipin (z-score) reaches at least -0.4 for "CN(C)[C@@H]1C(O)=C(C(=O)NCNCCCC[C@H](N)C(=O)O)C(=O)[C@@]2(O)C(O)=C3C(=O)c4c(O)cccc4[C@@](C)(O)[C@H]3C[C@@H]12" ?
TRUE

Reported filipin (z-score) reaches at least -0.4 for CCCCNC(=O)NS(=O)(=O)c1ccc(C)cc1 [Tolbutamide] ?
FALSE

Reported filipin (z-score) reaches at least -0.4 for CN(C)CCC=C1c2ccccc2COc2ccccc21 [Doxepin hydrochloride] ?
TRUE

Reported filipin (z-score) reaches at least -0.4 for COc1ccc(CC(C)NCC(O)c2ccc(O)c(NC=O)c2)cc1 (stereo unspecified) [Formoterol fumarate] ?
FALSE

Reported filipin (z-score) reaches at least -0.4 for Cn1c(=O)c2c(ncn2CC(O)CO)n(C)c1=O (stereo unspecified) ?
FALSE
